# measurement_target: T1, cynomolgus monkey CD27L (cynomolgus monkey, UniProt A0A2K5WTU9 39-190)
# T1 construct: also called cynomolgus CD27L
# T1 sequence: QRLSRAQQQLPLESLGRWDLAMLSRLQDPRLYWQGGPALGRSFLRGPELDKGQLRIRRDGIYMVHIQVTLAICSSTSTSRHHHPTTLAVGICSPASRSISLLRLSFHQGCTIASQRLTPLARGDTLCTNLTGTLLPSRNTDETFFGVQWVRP
# experimental_protocol: binding to cynomolgus CD27L (column 'Cyno Avidity EC50 nM'); method not stated for the figure
Threshold-based label: EC50 under 900 pM gives Fulfilled, EC50 not under 900 pM gives Not fulfilled.

Check out these entries, answers already filled in.
# TODO verify EC50 < 900 pM strictly for this binder: Ab4 (antibody, human IgG1, kappa, V domains shown, Fully human IgG1; also called A4; unconjugated parental Ab4) VH: QVQLVESGGGVVQPGRSLRLSCAASGFTFSNYGIHWVRQAPGKGLEWVAVIWYDGSNKYYADSVKGRFTISRDNSKNTLYLQMNSLRAEDTAVYYCARDGGYSGYDSGFDYWGQGTLVTVSS VL: DIVMTQSPLSLPVTPGEPASISCRSSQSLLNSNGYNYLDWYLQKPGQSPQFLIYLGSYRASGVPDRFSGSGSGTDFTLRISRVEAEDVGVYYCIQTLQTPFTFGPGTKVDIKR Fulfilled

Is EC50 strictly under 900 pM for the entry Ab8 (antibody, human IgG1, kappa, V domains shown, also called A8; unconjugated Ab8) VH: QVQLVESGGGVVQPGRSLRLSCAASGFTFSSYGMHWVRQAPGKGLEWVAVIWYDGSDKYFADSVKGRFTISRDNSKNTLYLQMNSLRAEDTAVYYCARDGIAGARYVYFDYWGQGTLVTVSS VL: DIQMTQSPSSLSASVGDRVTITCRASQGISNYLAWFQQKPGKAPKSLIYAASSLQGGVPSKFSGSGSGTDFTLTISSLQPEDFATYYCQQYYNYPFTFGPGTTVDIKR ? Fulfilled

Further cases:
Could you please tell me whether EC50 recorded for Ab7 (antibody, human IgG1, lambda, V domains shown, Fully human IgG1 from XenoMouse hybridoma) VH: QVQLVESGGGVVQPGRSLRLSCAASGFTFSTYGMHWVRQAPGKGLEWVAVIWYDGSNKYYGDSVKGRFTISRDNSKNTLYLQMNSLRAEDTAVYYCARDNSHYYYGMDVWGQGTTVTVSS VL: QSVLTQPPSVSGAPGQRVTISCTGSSSNIGAGYDVNWYQQFPGTAPKLLIYVNNNRPSGVPDRFSGSTSGTSASLAITGLQAEDEADYYCQSYDTSLSASVFGGGTRLTVLG is less than 900 pM? Fulfilled

Criterion: EC50 strictly below 900 pM. Is it met by Ab5 (antibody, human IgG1, kappa, V domains shown, Fully human IgG1 from XenoMouse hybridoma) VH: QVQLVQSGAEVKKPGASVKVSCKASGYTFTSYDINWVRQATGQGLEWMGWMNPNSGNTGYAQKFQGRVTMTRNTSISTAYMELSSLRSEDTAVYYCARGYDFWSGYYYYYYGMDVWGQGTTVTVSS VL: EIVLTQSPGTLSLSPGERATLSCRASQSVSSSYLAWYQQRPGQAPRLLIYGASSRATGIPDRFSGSGSGTDFTLTISSLEPEDFAVYYCLQSGSSVPLTFGGGTKVEIKR ? Not fulfilled

Given Ab6 (antibody, human IgG1, lambda, V domains shown, Fully human IgG1 from XenoMouse hybridoma) VH: QVQLVQSGAEVKKPGASVKVSCKASGYTFTSYGISWVRQAPGQGLEWMGWISAYNGYTHYAQKLQGRVTMTTDTSTSTAYMELRSLRSDDTAVYYCARDYGGNDYYGMDVWGQGTTVTVSS VL: QSVLTQPPSASGTPGQRVTISCSGSSSNIGINYVYWYQQLPGTAPKLLIYRSDQRPSGVPDRFSGSKSGTSASLALSGLRSEDEADYYCAAWDDSLSGVVFGGGTKLTVLG , is recorded EC50 strictly lower than 900 pM? Fulfilled
